Target: ABCG2 (Homo sapiens)
Sequence (Q9UNQ0 1-655): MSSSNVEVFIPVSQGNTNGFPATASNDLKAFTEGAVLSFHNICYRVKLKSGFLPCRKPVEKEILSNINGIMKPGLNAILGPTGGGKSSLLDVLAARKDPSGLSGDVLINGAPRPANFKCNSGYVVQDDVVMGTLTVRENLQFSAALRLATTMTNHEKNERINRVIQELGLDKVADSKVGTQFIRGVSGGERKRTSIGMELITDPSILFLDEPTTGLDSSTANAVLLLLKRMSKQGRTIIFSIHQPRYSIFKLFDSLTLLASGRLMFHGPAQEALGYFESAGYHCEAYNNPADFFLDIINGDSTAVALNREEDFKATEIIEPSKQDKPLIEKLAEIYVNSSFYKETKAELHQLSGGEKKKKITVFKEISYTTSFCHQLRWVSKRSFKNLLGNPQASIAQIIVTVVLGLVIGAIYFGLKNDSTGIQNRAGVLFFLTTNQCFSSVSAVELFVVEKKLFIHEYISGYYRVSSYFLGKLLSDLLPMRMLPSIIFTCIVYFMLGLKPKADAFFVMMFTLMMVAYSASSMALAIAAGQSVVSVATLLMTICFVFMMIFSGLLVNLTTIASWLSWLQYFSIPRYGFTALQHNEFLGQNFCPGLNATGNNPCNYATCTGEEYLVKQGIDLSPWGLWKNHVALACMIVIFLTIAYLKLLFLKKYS
Assay: Bioluminescence imaging (BLI) assay in HEK293/ABCG2/fLuc cells
Conditions: human, 40 min, 17 μM
Where a name gives a salt, the structure may show the parent alone.
measurementType: Fold (BLI enhancement, S/B ratio over control)
Be sure to follow the number with its unit.

Need Fold (BLI enhancement, S/B ratio over control), item OCc1cc(C(O)CNCCCCCCOCCCCc2ccccc2)ccc1O (centres unmarked) [salmeterol xinafoate]
2.4 fold

Entry COc1ccc(CN2CCN(C(c3ccc(F)cc3)c3ccc(F)cc3)CC2)c(OC)c1OC [lomerizine hydrochloride] please
4.0 fold

Another compound: CC(C)OC(=O)C(C)(C)Oc1ccc(C(=O)c2ccc(Cl)cc2)cc1 [fenofibrate]
2.3 fold

====

Listing of recorded Fold (BLI enhancement, S/B ratio over control) by entry.
Molecular target: ABCG2 (Homo sapiens, UniProt Q9UNQ0)
Test: Bioluminescence imaging (BLI) assay in HEK293/ABCG2/fLuc cells
Details: human, 40 min, 17 μM
Where a name gives a salt, the structure may show the parent alone.
Numeric answer only, unit fold assumed.

Here's what some known entries look like.
[
  {
    "compound": "O=C(Nc1ccccc1)OCC(CN1CCCCC1)OC(=O)Nc1ccccc1 (stereo not drawn) [diperodon hydrochloride]",
    "targetSystem": "ABCG2 (Homo sapiens, UniProt Q9UNQ0)",
    "observed": 2.6
  },
  {
    "compound": "COC(=O)Nc1nc2cc(C(=O)c3ccc(F)cc3)ccc2[nH]1 [flubendazole]",
    "targetSystem": "ABCG2 (Homo sapiens, UniProt Q9UNQ0)",
    "observed": 6.3
  }
]

Now look at this entry.
Any idea what its Fold (BLI enhancement, S/B ratio over control) is? The compound is CC(C)(C(=O)c1cccnc1)c1cccnc1 [metyrapone, 2-methyl-1,2-dipyridin-3-yl-propan-1-one]
6.3

====

Listing of entries alongside the reported Fold (BLI enhancement, S/B ratio over control).
Target: ABCG2 (Homo sapiens)
Sequence (Q9UNQ0 1-655): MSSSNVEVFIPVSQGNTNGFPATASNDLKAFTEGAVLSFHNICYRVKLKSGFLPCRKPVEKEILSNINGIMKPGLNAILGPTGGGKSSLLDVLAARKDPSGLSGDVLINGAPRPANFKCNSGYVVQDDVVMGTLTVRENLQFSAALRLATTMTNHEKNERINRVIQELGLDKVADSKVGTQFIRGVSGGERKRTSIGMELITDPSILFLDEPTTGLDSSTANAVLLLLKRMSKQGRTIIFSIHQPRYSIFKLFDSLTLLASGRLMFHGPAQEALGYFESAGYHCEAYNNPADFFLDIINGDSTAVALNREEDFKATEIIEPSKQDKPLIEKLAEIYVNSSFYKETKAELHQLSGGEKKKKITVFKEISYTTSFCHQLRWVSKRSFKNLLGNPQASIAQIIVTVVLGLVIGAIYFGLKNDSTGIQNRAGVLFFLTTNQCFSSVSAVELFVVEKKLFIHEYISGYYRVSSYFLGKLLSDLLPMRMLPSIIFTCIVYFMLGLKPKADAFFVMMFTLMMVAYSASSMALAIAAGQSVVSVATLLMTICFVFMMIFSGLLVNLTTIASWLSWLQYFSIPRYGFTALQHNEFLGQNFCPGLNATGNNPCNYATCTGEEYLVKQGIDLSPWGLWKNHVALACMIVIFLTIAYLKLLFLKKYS
Assay: Bioluminescence imaging (BLI) assay in HEK293/ABCG2/fLuc cells
Conditions: human, 40 min, 17 μM
Your answer is read as fold, so omit the unit and give the number.

What value of Fold (BLI enhancement, S/B ratio over control) has been recorded for this entry: C=C1CC[C@H](O)C/C1=C/C=C1\CCC[C@]2(C)[C@@H]([C@H](C)CCCC(C)(C)O)CC[C@@H]12
3.2

Check CCCCNc1c(C(=O)OCC)c(C)nc2c1cnn2CC [tracazolate] too.
20.0

====

Biological target: ABCG2 (Homo sapiens)
Test: Bioluminescence imaging (BLI) assay in HEK293/ABCG2/fLuc cells
Conditions: human, 40 min, 17 μM
Structures can show the parent of a compound that is named as a salt.
Each entry below lists one item and its recorded Fold (BLI enhancement, S/B ratio over control) value.
// note: answer is a bare numeric in fold

These solved cases illustrate the format of a correct answer.
[
  {
    "compound": "N#CC(c1ccc(Cl)cc1)c1c(Cl)cc(-n2ncc(=O)[nH]c2=O)cc1Cl (stereo not drawn)",
    "observed": 2.4
  },
  {
    "compound": "CO[C@]12C[C@@H](COC(=O)c3cncc(Br)c3)CN(C)[C@@H]1Cc1cn(C)c3cccc2c13",
    "observed": 2.0
  },
  {
    "compound": "Brc1c(NC2=NCCN2)ccc2nccnc12",
    "observed": 3.4
  }
]

ABCG2 (Homo sapiens) / Fold (BLI enhancement, S/B ratio over control) / Fc1ccc(C(c2ccc(F)cc2)N2CCN(C/C=C/c3ccccc3)CC2)cc1 [flunarizine hydrochloride] : value?
2.9

Also need CCN(CCCCOC(=O)c1ccc(OC)c(OC)c1)C(C)Cc1ccc(OC)cc1 (stereo not drawn) [mebeverine hydrochloride] , thanks.
3.2

Then this compound: CC(C)(O/N=C(\C(=O)N[C@@H]1C(=O)N2C(C(=O)[O-])=C(C[n+]3ccccc3)CS[C@H]12)c1csc(N)n1)C(=O)O
2.5

Now the compound CC(=O)O[C@]1(C(C)=O)CC[C@H]2[C@@H]3C=C(C)C4=CC(=O)CC[C@]4(C)[C@H]3CC[C@@]21C [megestrol acetate]
2.1

Moving on to the next compound: COc1cc(/C=C/C(=O)CC(=O)/C=C/c2ccc(O)c(OC)c2)ccc1O
6.3

Continue with O=c1c(O)c(-c2ccc(O)cc2)oc2cc(O)cc(O)c12
4.3

Next compound: CN1C2CCCC1CC(NC(=O)c1nn(C)c3ccccc13)C2 (stereo not drawn) [granisetron hydrochloride]
2.2

====

Molecular target: UniProt Q9UNQ0
Sequence (Q9UNQ0 1-655): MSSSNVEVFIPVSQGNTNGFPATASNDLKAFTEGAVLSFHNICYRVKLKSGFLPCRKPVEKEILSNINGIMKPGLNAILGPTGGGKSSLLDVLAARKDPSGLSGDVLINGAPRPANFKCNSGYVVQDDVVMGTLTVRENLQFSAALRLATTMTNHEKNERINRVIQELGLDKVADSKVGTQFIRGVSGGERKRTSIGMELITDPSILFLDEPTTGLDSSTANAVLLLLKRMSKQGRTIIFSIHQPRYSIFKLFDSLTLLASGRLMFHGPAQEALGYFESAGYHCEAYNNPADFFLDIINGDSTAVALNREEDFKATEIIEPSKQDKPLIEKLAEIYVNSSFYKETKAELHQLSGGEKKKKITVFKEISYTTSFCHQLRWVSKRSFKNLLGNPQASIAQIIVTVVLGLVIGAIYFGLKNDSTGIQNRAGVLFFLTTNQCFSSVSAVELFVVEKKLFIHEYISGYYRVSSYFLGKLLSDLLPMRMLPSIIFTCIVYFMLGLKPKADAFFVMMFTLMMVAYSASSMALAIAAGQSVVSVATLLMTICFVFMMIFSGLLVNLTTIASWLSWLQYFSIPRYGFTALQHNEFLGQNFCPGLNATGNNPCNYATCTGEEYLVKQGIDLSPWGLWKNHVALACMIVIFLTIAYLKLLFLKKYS
Test: Bioluminescence imaging (BLI) assay in HEK293/ABCG2/fLuc cells
Conditions: human, 40 min, 17 μM
measurementType: Fold (BLI enhancement, S/B ratio over control) (fold)
Write the number in fold without appending the unit.

Sample answers from the record:
[
  {
    "compound": "CC(C)(C)c1ccc(C(O)CCCN2CCC(C(O)(c3ccccc3)c3ccccc3)CC2)cc1 (centres unmarked)",
    "targetSystem": "UniProt Q9UNQ0",
    "readoutUnit": "fold",
    "observed": 4.2
  },
  {
    "compound": "CCC(=O)O[C@]1(C(=O)CCl)[C@@H](C)C[C@H]2[C@@H]3CCC4=CC(=O)C=C[C@]4(C)[C@@]3(F)[C@@H](O)C[C@@]21C [clobetasol propionate]",
    "targetSystem": "UniProt Q9UNQ0",
    "readoutUnit": "fold",
    "observed": 3.3
  },
  {
    "compound": "CCCc1nc(C)c2c(=O)[nH]c(-c3cc(S(=O)(=O)N4CCN(CC)CC4)ccc3OCC)nn12",
    "targetSystem": "UniProt Q9UNQ0",
    "readoutUnit": "fold",
    "observed": 3.3
  }
]

Would you kindly share the measured Fold (BLI enhancement, S/B ratio over control) for CCN(CC)Cc1cc(Nc2ccnc3cc(Cl)ccc23)ccc1O ?
3.8

Same question for CC1(C)O[C@@H]2C[C@H]3[C@@H]4CCC5=CC(=O)CC[C@]5(C)[C@@]4(F)[C@@H](O)C[C@]3(C)[C@]2(C(=O)CCl)O1 [halcinonide] please.
2.2
